# Target Or System: hCB2 (Homo sapiens)
# Sequence (P34972 whole entry): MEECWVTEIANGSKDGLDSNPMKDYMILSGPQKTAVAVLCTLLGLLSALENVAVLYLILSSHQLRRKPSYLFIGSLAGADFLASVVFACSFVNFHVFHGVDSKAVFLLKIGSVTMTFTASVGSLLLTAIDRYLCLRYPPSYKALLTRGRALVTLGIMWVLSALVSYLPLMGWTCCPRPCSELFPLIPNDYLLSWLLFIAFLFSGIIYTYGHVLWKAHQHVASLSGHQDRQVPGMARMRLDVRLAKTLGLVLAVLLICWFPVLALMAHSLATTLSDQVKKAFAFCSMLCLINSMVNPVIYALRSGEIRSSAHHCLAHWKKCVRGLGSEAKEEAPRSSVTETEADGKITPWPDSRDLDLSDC
# Test Summary: cAMP determination in functional hCB2-CHO stable cells (HTRF)
# Assay type: cell-based
# Measurement Setup: CHO-hCB2 cells, cAMP, forskolin 10 μM, agonist testing; read-out: EC50 Range
Endpoint Name: EC50

| Compound | EC50 |
| --- | --- |
| Cc1cccc2c(Nc3cccc(CF)c3)ncc(C(=O)N3CCCCC3)c12 | < 10 nM |

INPUT: Recorded EC50 of "Cc1ccc(Cl)cc1Nc1ncc(C(=O)N2CCOCC2)c2c(C)cccc12" , please.
OUTPUT: < 10 nM

INPUT: Recorded EC50 of "CN(C)C(=O)c1cnc(Nc2cccc(C(F)(F)F)c2F)c2cccc(Cl)c12" , please.
OUTPUT: < 10 nM

INPUT: Recorded EC50 of CC1COCC(C)N1C(=O)c1ccc(Nc2cc(F)cc(F)c2)c2ccccc12 (centres unmarked) , please.
OUTPUT: 10 to 1000 nM

INPUT: Recorded EC50 of "CC(C)N(C)C(=O)c1cnc(Nc2cccc(F)c2C(F)(F)F)c2cccc(Cl)c12" , please.
OUTPUT: 10 to 1000 nM

INPUT: Recorded EC50 of "COc1cccc(Nc2ccc(C(=O)N3CCCCC3)c3c(C)cccc23)c1" , please.
OUTPUT: < 10 nM

INPUT: Recorded EC50 of "CCN(C)C(=O)c1cnc(Nc2c(F)ccc(F)c2F)c2cccc(Cl)c12" , please.
OUTPUT: 10 to 1000 nM

INPUT: Recorded EC50 of "Cc1cccc(Nc2ccc(C(=O)N3CCOCC3)c3c(C)cccc23)c1" , please.
OUTPUT: < 10 nM
